Value source: patent US9409876B2

- assay.summary: Pharmacokinetics after IV administration, brain penetration assessment
- Assay type: in vivo, rat
- run.parameters: Sprague-Dawley, rat, plasma, iv, 7.5 mg/kg, Time 60, Average, read-out: Plasma level
- Protocol: In three of the rats tested in Example 56, indicated as R1, […], also the pharmacokinetic profile of compound 8 (R,R) was evaluated. The results are summarised in Tables III to IV and in FIGS. 1-4. […] In tables IV and VI, LLOQ means lower limit of quantification. […]
readout.label: concentration at 60 min

> print(dat)
                                   compound  experimental.value
1  COc1ccccc1CN(C(=O)CC(C)C)[C@@H](C(=O)NC[C@H]1CCCO1)c1ccc(C)cc1 [Compound 8 (R,R)]           162 ng/mL
